molecular target: UniProt:O43614; test: In vitro assay: intracellular calcium measurements (FLIPR), antagonistic activity; type: cell-based; conditions: CHO cells, 3 nM orexin-A, compound incubation 120 min; marked values are geometric means of n = 2-6; read-out: IC50 OX2
Sequence (O43614 whole entry): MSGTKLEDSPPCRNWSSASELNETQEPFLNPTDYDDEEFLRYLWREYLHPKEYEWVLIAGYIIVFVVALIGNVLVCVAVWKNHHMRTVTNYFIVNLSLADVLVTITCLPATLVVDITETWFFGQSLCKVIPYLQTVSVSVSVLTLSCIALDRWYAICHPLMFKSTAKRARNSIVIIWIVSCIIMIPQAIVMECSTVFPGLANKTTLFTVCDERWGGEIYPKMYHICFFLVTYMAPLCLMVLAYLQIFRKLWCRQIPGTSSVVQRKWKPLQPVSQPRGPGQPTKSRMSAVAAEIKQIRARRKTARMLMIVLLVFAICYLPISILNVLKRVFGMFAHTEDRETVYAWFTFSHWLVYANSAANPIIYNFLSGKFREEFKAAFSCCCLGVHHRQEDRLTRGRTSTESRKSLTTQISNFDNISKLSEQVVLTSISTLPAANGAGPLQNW
pIC50: −log10 of the molar value.
Respond with class 1 for pIC50 values of 7 and above, class 0 for values below.

Request: Does pIC50 meet or surpass 7 for COc1cccc(OC)c1C1CCCCC(=O)N1Cc1cccc(-n2nccn2)c1 (stereo not shown) [Example 101] ?
Response: class 1

Request: Then this compound: COc1cccc(OC)c1C1CCCCC(=O)N1Cc1cccc(-n2cccn2)c1 (stereo not shown) [Example 97]
Response: class 1

Request: Then this compound: CC1CC(c2c(F)cccc2OCCO)N(Cc2ccc(OC(F)(F)F)cc2)C1=O (stereo not shown) [Example 416]
Response: class 1

Request: Then this compound: COc1cccc(F)c1[C@@H]1C[C@@H](Cl)C(=O)N1Cc1ccc(OC(F)(F)F)cc1 (racemic) [Example 324]
Response: class 0

Request: Then this compound: COc1cccc(OC)c1C1CCCC(=O)N1Cc1cccc(-c2cccnc2)c1 (stereo not shown) [Example 7]
Response: class 1

Request: Then this compound: COc1cccc(OC)c1C1CC(C)C(=O)N1Cc1ccc2nc(C)sc2c1 (stereo not shown) [Example 151]
Response: class 0

Request: Then this compound: COc1ccc2ccccc2c1C1CCCC(=O)N1Cc1cccc(-c2ncc(C)s2)c1 (stereo not shown) [Example 446]
Response: class 1

Request: Then this compound: COc1cccc(OC)c1C1CC(C)C(=O)N1Cc1cccc(-c2noc(C)n2)c1 (stereo not shown) [Example 143]
Response: class 1

Request: Then this compound: COc1ccc(Cl)c(OC)c1[C@@H]1C[C@H](Cl)C(=O)N1Cc1ccc(OC(F)(F)F)cc1 (racemic) [Example 318]
Response: class 0

Request: Then this compound: COc1cccc(OC)c1C1CCCCC(=O)N1Cc1cccc(-c2nccs2)c1 (stereo not shown) [Example 85]
Response: class 1

Request: Then this compound: COc1cccc(OC)c1C1CC(C)C(=O)N1Cc1ccc(OCCF)cc1 (stereo not shown) [Example 422]
Response: class 0

Request: Then this compound: COc1cccc(OC)c1C1CC(C)C(=O)N1Cc1cccc(OCC(F)F)c1 (stereo not shown) [Example 419]
Response: class 0

Request: Then this compound: COc1cccc(OC)c1C1CCCCC(=O)N1Cc1ccnc(-c2ccccc2)c1 (stereo not shown) [Example 81]
Response: class 1

Request: Then this compound: CCOc1cccc(F)c1C1CC(C)C(=O)N1Cc1cccc(-c2nc(Cl)cs2)c1 (stereo not shown) [Example 385]
Response: class 1

Request: Then this compound: COc1cccc(OC)c1C1CCCCC(=O)N1Cc1cccc(-c2ncccn2)c1 (stereo not shown) [Example 83]
Response: class 1

Request: Then this compound: COc1cccc(OC)c1C1CCCC(=O)N1Cc1ccc(-c2ccccc2)s1 (stereo not shown) [Example 18]
Response: class 1

Request: Then this compound: COc1cccc(OC)c1C1CCCCC(=O)N1Cc1ccc(-c2ccccc2)cc1 (stereo not shown) [Example 77]
Response: class 0

Request: Then this compound: COc1cccc(OC)c1C1CCCCC(=O)N1Cc1cccc(N2CCCC2)c1 (stereo not shown) [Example 93]
Response: class 1

Request: Then this compound: COc1cccc(OC)c1C1CCC(=O)N1Cc1cccc(N2CCCCC2)n1 (stereo not shown) [Example 130]
Response: class 0

Request: Then this compound: COc1ccc2c(c1C1CCCC(=O)N1Cc1cccc(-c3ncc(C)s3)c1)OCCO2 (stereo not shown) [Example 444]
Response: class 1
